Entry source: patent US20130102538A1

biological target: PS1 precursor (Homo sapiens, UniProt P49768); construct: The unprocessed or precursor form of PS1 is evidenced by a band at 45 kDa; endogenous in cells; host or cells: SH-SY5Y neuroblastoma cells; assay: Screening of γ-secretase inhibitors for PS1 precursor (holo) enhancement, western blot; assay type: cell-based; design: key: −: no effect; +: some effect; ++: moderate effect; +++: strong effect; conditions: SH-SY5Y neuroblastoma cells, ~50 uM inhibitor, 24 hrs
Residues, ends and D or L forms follow the SMILES beside them. *: point of attachment. Cbz = O=C(OCc1ccccc1)*; Boc = CC(C)(C)OC(=O)*

[
  {
    "Compound": "CC(C)CC(NC(=O)OCc1ccccc1)C(=O)NC(C=O)Cc1ccccc1 (stereo not drawn) [V] (Cbz-Leu-Phe-aldehyde; configuration not given here)",
    "PS1 Precursor Enhancement": "−"
  },
  {
    "Compound": "CC(C)C(C=O)NC(=O)C(NC(=O)CNC(=O)OC(C)(C)C)C(C)C (stereo not drawn) [II-40] (Boc-Gly-Val-Val-aldehyde; configuration not given here)",
    "PS1 Precursor Enhancement": "−"
  },
  {
    "Compound": "C[C@H](NC(=O)Cc1cc(F)cc(F)c1)C(=O)N[C@@H]1C(=O)N(C)c2ccccc2-c2ccccc21",
    "PS1 Precursor Enhancement": "+++"
  }
]

====

target: γ-secretase (Homo sapiens, UniProt P49768); test: γ-secretase inhibitory IC50 of compound A; conditions: γ-secretase inhibition, compared with brain levels
Endpoint name: IC50

Problem: Hello, please tell me recorded IC50 for this one: C[C@H](OC(=O)NCC(F)(F)C(F)(F)F)C(=O)N[C@@H]1C(=O)N(C)c2ccccc2-c2ccccc21
Solution: ~60 nM

====

Target: PS1 precursor (Homo sapiens, UniProt P49768)
Construct: The unprocessed or precursor form of PS1 is evidenced by a band at 45 kDa; endogenous in cells; host or cells: SH-SY5Y neuroblastoma cells
Assay: Screening of γ-secretase inhibitors for PS1 precursor (holo) enhancement, western blot
Assay type: cell-based
Settings: SY5Y neuroblastomas, ~50 uM inhibitor, 24 hrs
Method: Eighteen different γ-secretase inhibitors (purchased from Calbiochem) were tested for their ability to stabilize the PS1 precursor. SH-SY5Y neuroblastoma cells (1e6) incubated in 6-well plates were dosed with ˜50 uM γ-secretase inhibitor (10% FBS, DMEM) for 24 hrs. […] Total protein in cell lysates were determined by BCA and 25 ug of protein/lane loaded onto 4-12% BisTris NuPage gels (Invitrogen) that were electrophoresed at 150V for 1 hr. […]
Non-standard residues stand in square brackets, D forms with d. Residues, ends and D or L forms follow the SMILES beside them. ξ: configuration not given here. *: point of attachment. Cbz = O=C(OCc1ccccc1)*; ξNle = CCCCC(N)C(=O)O
Endpoint name: PS1 precursor (45 kDa band) level / stabilization

[
  {
    "Molecule": "CC(C)[C@H](NC(=O)c1ccc2ccccc2c1)C(=O)N[C@H](C=O)Cc1ccccc1",
    "Experimental value": "significantly increased"
  },
  {
    "Molecule": "CCC(C)C(NC(=O)C=Cc1cc(OC)cc(OC)c1)C(=O)NC(C=O)CC(C)C (stereo not drawn) [I-40, trans-3,5-DMC-Ile-Leu-CHO]",
    "Experimental value": "significantly increased"
  },
  {
    "Molecule": "CC(C)C[C@H](NC(=O)[C@H](Cc1ccccc1)C[C@@H](O)[C@H](Cc1ccccc1)NC(=O)OC(C)(C)C)C(=O)N[C@@H](Cc1ccccc1)C(N)=O",
    "Experimental value": "significantly increased"
  },
  {
    "Molecule": "CCCCC(C=O)NC(=O)[C@H](CC(C)C)NC(=O)[C@@H](CC(C)C)NC(=O)OCc1ccccc1 (stereo partly drawn) [I] (Cbz-[dL]-Leu-[ξNle]-aldehyde)",
    "Experimental value": "significantly increased"
  }
]

Problem: Give the observed PS1 precursor (45 kDa band) level / stabilization of CCC(C)C(NC(=O)[C@H](Cc1ccc(O)cc1)NC(=O)OCc1ccccc1)C(=O)N[C@H](C=O)CC(C)C (stereo partly drawn) for PS1 precursor (Homo sapiens, UniProt P49768).
Solution: significantly increased

====

experiment: Brain concentration of compound A by LCMS; type: in vivo; settings: C57BL6, mouse, oral, 30 mg/kg, mice, read-out: brain t1/2 (converted)
Endpoint name: half-life

Problem: For the compound C[C@H](OC(=O)NCC(F)(F)C(F)(F)F)C(=O)N[C@@H]1C(=O)N(C)c2ccccc2-c2ccccc21 , give its reported half-life.
Solution: ~3.5 h

====

molecular target: PS1 precursor (Homo sapiens); construct: The unprocessed or precursor form of PS1 is evidenced by a band at 45 kDa; endogenous in cells; host or cells: SH-SY5Y neuroblastoma cells; assay: Screening of γ-secretase inhibitors for PS1 precursor (holo) enhancement, western blot; type: cell-based; set-up: key: −: no effect; +: some effect; ++: moderate effect; +++: strong effect; conditions: SH-SY5Y neuroblastoma cells, ~50 uM inhibitor, 24 hrs
Non-standard residues stand in square brackets, D forms with d. Residues, ends and D or L forms follow the SMILES beside them. ξ: configuration not given here. *: point of attachment. Cbz = O=C(OCc1ccccc1)*; ξNle = CCCCC(N)C(=O)O
Endpoint name: PS1 Precursor Enhancement

Study these solved cases before continuing.
[
  {
    "Compound": "CCC(C)C(NC(=O)C=Cc1cc(OC)cc(OC)c1)C(=O)NC(C=O)CC(C)C (stereo not drawn) [I-40, trans-3,5-DMC-Ile-Leu-CHO]",
    "Endpoint name": "PS1 Precursor Enhancement",
    "Experimental value": "−"
  },
  {
    "Compound": "CC(C)CC(C=O)NC(=O)C(CC(C)C)NC(=O)OC1CC(C)CCC1C(C)C (centres unmarked)",
    "Endpoint name": "PS1 Precursor Enhancement",
    "Experimental value": "−"
  },
  {
    "Compound": "CC(C)[C@H](NC(=O)c1ccc2ccccc2c1)C(=O)N[C@H](C=O)Cc1ccccc1",
    "Endpoint name": "PS1 Precursor Enhancement",
    "Experimental value": "++"
  },
  {
    "Compound": "C[C@H](NC(=O)Cc1cc(F)cc(F)c1)C(=O)N[C@H](C(=O)OC(C)(C)C)c1ccccc1",
    "Endpoint name": "PS1 Precursor Enhancement",
    "Experimental value": "−"
  },
  {
    "Compound": "CCC(C)C(NC(=O)[C@H](Cc1ccc(O)cc1)NC(=O)OCc1ccccc1)C(=O)N[C@H](C=O)CC(C)C (some centres unmarked)",
    "Endpoint name": "PS1 Precursor Enhancement",
    "Experimental value": "+"
  },
  {
    "Compound": "COC(=O)[C@@H](NC(=O)[C@H](C)NC(=O)Cc1cc(F)cc(F)c1)c1ccccc1",
    "Endpoint name": "PS1 Precursor Enhancement",
    "Experimental value": "−"
  }
]

Problem: Find the measured PS1 Precursor Enhancement of CC(C)C[C@@H](C=O)NC(=O)[C@@H](CC(C)C)NC(=O)OCc1ccccc1 with PS1 precursor (Homo sapiens) as test system.
Solution: −

Problem: // fetch PS1 Precursor Enhancement; item: CC(C)C[C@H](NC(=O)[C@H](Cc1ccccc1)C[C@@H](O)[C@H](Cc1ccccc1)NC(=O)OC(C)(C)C)C(=O)N[C@@H](Cc1ccccc1)C(N)=O ; system: PS1 precursor (Homo sapiens)
Solution: +++

Problem: State measured PS1 Precursor Enhancement of the compound COC(=O)[C@@H](NC(=O)[C@H](CC(C)C)NC(=O)N(Cc1ccccc1)C[C@@H](O)[C@H](Cc1ccccc1)NC(=O)OC(C)(C)C)C(C)C with PS1 precursor (Homo sapiens).
Solution: −

Problem: # lookup: PS1 precursor (Homo sapiens) PS1 Precursor Enhancement, key = O=C(O)c1cc(Oc2ccc([N+](=O)[O-])cc2)cc(Oc2ccc([N+](=O)[O-])cc2)c1
Solution: −

Problem: With PS1 precursor (Homo sapiens) as the test system, provide measured PS1 Precursor Enhancement for this compound: CCCCC(C=O)NC(=O)[C@H](CC(C)C)NC(=O)[C@@H](CC(C)C)NC(=O)OCc1ccccc1 (stereo partly drawn) [I] (Cbz-[dL]-Leu-[ξNle]-aldehyde)
Solution: +
